Where these numbers come from: patent US20250270209A1

pIC50: −log10 of the molar value.
Consider the following pIC50 values measured on LRRK2 wild type enzyme (Homo sapiens, UniProt Q5S007).
Sequence (Q5S007 whole entry): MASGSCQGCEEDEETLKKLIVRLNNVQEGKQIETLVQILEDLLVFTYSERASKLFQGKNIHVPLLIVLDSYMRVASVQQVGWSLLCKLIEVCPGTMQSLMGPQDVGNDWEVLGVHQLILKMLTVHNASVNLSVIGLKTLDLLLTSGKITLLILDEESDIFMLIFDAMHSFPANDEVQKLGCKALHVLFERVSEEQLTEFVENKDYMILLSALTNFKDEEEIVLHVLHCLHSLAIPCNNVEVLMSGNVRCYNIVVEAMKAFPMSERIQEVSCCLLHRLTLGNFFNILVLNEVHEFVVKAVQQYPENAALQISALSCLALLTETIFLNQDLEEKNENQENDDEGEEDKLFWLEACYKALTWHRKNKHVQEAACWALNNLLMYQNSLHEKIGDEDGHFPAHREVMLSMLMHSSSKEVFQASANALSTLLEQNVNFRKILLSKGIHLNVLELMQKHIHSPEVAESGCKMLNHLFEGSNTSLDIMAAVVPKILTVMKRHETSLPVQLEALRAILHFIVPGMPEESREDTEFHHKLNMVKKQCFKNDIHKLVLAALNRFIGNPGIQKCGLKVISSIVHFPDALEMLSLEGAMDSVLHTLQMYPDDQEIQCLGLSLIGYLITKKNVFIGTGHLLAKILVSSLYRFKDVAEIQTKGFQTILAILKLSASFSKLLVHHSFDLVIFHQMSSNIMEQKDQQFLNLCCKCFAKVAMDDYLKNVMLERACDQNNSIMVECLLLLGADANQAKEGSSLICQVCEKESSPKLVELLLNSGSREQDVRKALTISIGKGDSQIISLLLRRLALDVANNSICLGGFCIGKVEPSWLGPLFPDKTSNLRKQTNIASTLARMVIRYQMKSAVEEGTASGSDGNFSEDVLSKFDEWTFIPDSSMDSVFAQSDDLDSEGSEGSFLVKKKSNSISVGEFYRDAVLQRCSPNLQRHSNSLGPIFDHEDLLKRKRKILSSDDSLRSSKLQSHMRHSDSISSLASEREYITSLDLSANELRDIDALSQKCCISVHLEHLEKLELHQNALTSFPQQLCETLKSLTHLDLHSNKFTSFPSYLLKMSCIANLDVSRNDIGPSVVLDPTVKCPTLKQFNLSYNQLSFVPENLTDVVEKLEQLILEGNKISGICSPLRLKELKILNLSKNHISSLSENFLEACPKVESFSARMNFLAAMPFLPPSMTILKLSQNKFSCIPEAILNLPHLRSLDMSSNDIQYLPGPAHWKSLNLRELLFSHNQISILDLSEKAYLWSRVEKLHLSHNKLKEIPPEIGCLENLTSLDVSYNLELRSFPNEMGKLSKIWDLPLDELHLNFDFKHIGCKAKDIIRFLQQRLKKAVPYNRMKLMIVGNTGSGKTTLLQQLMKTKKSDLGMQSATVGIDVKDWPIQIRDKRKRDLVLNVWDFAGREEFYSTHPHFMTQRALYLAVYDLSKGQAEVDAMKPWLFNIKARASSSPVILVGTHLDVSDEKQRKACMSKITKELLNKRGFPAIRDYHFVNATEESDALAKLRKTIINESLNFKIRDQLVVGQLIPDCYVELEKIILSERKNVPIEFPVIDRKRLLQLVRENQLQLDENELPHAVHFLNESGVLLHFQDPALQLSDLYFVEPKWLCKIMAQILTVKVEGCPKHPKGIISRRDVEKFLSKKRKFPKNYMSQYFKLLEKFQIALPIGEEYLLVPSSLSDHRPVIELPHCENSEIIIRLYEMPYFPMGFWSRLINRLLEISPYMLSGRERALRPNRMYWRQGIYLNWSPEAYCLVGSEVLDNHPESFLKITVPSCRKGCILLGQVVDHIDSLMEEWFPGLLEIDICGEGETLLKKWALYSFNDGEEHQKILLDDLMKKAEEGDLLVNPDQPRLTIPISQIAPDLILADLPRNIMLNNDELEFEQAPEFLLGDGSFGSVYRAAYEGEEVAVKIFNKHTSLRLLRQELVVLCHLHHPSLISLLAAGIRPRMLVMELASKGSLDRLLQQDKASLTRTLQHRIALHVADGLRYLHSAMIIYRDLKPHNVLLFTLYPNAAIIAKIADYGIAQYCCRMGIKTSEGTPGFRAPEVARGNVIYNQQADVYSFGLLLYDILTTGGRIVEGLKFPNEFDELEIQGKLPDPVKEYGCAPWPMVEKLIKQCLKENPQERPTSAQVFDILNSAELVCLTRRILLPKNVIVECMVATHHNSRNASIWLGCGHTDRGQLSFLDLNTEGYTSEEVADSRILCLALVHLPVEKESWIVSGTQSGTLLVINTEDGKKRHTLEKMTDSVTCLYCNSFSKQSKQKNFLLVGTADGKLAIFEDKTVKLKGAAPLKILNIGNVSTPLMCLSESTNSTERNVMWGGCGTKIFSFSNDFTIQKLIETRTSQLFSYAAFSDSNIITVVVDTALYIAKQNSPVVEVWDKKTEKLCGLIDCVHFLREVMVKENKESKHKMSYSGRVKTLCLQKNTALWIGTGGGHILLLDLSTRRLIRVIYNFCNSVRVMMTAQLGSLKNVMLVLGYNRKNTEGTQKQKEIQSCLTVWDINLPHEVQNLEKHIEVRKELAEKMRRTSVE

- Compound: "C[C@@H]1C[C@H](n2c(C3CC(=O)N(c4cnn(C)c4)C3)nc3cnc4ccc(Cl)cc4c32)CCO1 (some centres unmarked) [Compound 108]"
  pIC50: 9.01
- Compound: "C[C@@H]1C[C@H](n2c(CC(=O)NC3(C#N)CC3)nc3cnc4ccc(C#N)cc4c32)CCO1 [Compound 282]"
  pIC50: 9.21
- Compound: "Cc1noc(NC(=O)Cc2nc3cnc4ccc(C#N)cc4c3n2[C@@H]2CCO[C@H](C)C2)c1C [Compound 349]"
  pIC50: 9.26
- Compound: "C[C@@H]1C[C@H](n2c(CC(=O)Nc3ccc(=O)n(C)c3)nc3cnc4ccc(Cl)cc4c32)CCO1 [Compound 219]"
  pIC50: 9.63
- Compound: "C[C@@H]1C[C@H](n2c(C3CC(=O)N([C@@H](C)C4CC4)C3)nc3cnc4ccc(C#N)cc4c32)CCO1 (some centres unmarked) [Compound 35]"
  pIC50: 8.53
- Compound: "COCC1(NC(=O)Cc2nc3cnc4ccc(C#N)cc4c3n2[C@@H]2CCO[C@H](C)C2)CC1 [Compound 276]"
  pIC50: 9.04
- Compound: "C[C@@H]1C[C@H](n2c(CC(=O)N[C@H]3C[C@@H]3c3cccnc3)nc3cnc4ccc(C#N)cc4c32)CCO1 [Compound 347]"
  pIC50: 8.89
- Compound: "N#Cc1ccc2ncc3nc(CC(=O)NCC4CC4)n(C4CCOCC4)c3c2c1 [Compound 343]"
  pIC50: 8.55
- Compound: "C[C@@H]1C[C@H](n2c(CC(=O)Nc3ncc(C(F)(F)F)cn3)nc3cnc4ccc(C#N)cc4c32)CCO1 [Compound 355]"
  pIC50: 9.31
- Compound: "C[C@@H]1C[C@H](n2c(CC(=O)Nc3ccc(=O)n(C)c3)nc3cnc4ccc(C#N)cc4c32)CCO1 [Compound 281]"
  pIC50: 9.40
- Compound: "C[C@@H]1C[C@H](n2c(CC(=O)NC3(CO)CC3)nc3cnc4ccc(C#N)cc4c32)CCO1 [Compound 286]"
  pIC50: 8.84
- Compound: "Cc1noc(CNC(=O)Cc2nc3cnc4ccc(C#N)cc4c3n2[C@@H]2CCO[C@H](C)C2)n1 [Compound 279]"
  pIC50: 9.11
- Compound: "C[C@@H]1C[C@H](n2c(CC(=O)NC3(C)CC3)nc3cnc4ccc(C#N)cc4c32)CCO1 [Compound 328]"
  pIC50: 8.73
- Compound: "Cc1cc(NC(=O)Cc2nc3cnc4ccc(C#N)cc4c3n2[C@@H]2CCO[C@H](C)C2)no1 [Compound 156]"
  pIC50: 9.28
- Compound: "COc1c(NC(=O)Cc2nc3cnc4ccc(C#N)cc4c3n2[C@@H]2CCO[C@H](C)C2)cnn1C [Compound 224]"
  pIC50: 8.85
- Compound: "C[C@@H]1C[C@H](n2c(CC(=O)N[C@@H]3C[C@H]3c3cccnc3)nc3cnc4ccc(C#N)cc4c32)CCO1 [Compound 348]"
  pIC50: 9.14
- Compound: "COc1cc(C2CC2)ncc1NC(=O)Cc1nc2cnc3ccc(C#N)cc3c2n1[C@@H]1CCO[C@H](C)C1 [Compound 213]"
  pIC50: 9.39
- Compound: "C[C@@H]1C[C@H](n2c(CC(=O)Nc3cnccn3)nc3cnc4ccc(Cl)cc4c32)CCO1 [Compound 371]"
  pIC50: 8.95
- Compound: "N#Cc1ccc2ncc3nc(CC(=O)NCC4CC4)n(C4CCCC4)c3c2c1 [Compound 109]"
  pIC50: 8.74
- Compound: "CCNC(=O)Cc1nc2cnc3ccc(C#N)cc3c2n1[C@@H]1CCO[C@H](C)C1 [Compound 6]"
  pIC50: 9.24
- Compound: "CCc1ncc(NC(=O)Cc2nc3cnc4ccc(C#N)cc4c3n2[C@@H]2CCO[C@H](C)C2)cn1 [Compound 262]"
  pIC50: 9.33
- Compound: "C[C@@H]1C[C@H](n2c(CC(=O)Nc3ccnnc3)nc3cnc4ccc(C#N)cc4c32)CCO1 [Compound 268]"
  pIC50: 9.34
- Compound: "C[C@@H]1C[C@H](n2c(CC(=O)NC[C@@H]3CCCO3)nc3cnc4ccc(C#N)cc4c32)CCO1 [Compound 154]"
  pIC50: 9.17
- Compound: "C[C@@H]1C[C@H](n2c(CC(=O)NCc3cccc(F)n3)nc3cnc4ccc(C#N)cc4c32)CCO1 [Compound 146]"
  pIC50: 9.50
- Compound: "C[C@@H]1C[C@H](n2c(CC(=O)NC3CCC3)nc3cnc4ccc(C#N)cc4c32)CCO1 [Compound 84]"
  pIC50: 9.36
- Compound: "C[C@@H]1C[C@H](n2c([C@@H]3CCN(S(=O)(=O)C4CC4)C3)nc3cnc4ccc(C#N)cc4c32)CCO1 [Compound 24]"
  pIC50: 8.27
- Compound: "C[C@@H]1C[C@H](n2c(CC(=O)NC[C@H]3CCCO3)nc3cnc4ccc(C#N)cc4c32)CCO1 [Compound 153]"
  pIC50: 9.29
- Compound: "C[C@@H]1C[C@H](n2c(CC(=O)N[C@@H](C)c3ccccn3)nc3cnc4ccc(C#N)cc4c32)CCO1 [Compound 189]"
  pIC50: 9.48
- Compound: "C[C@@H]1C[C@H](n2c(C3CCN(C(=O)C4CC4)CC3)nc3cnc4ccc(C#N)cc4c32)CCO1 [Compound 27]"
  pIC50: 8.83

----------
Target: wild type LRRK2 overexpressed in recombinant HEK-293T cells (Homo sapiens, UniProt Q5S007)
Sequence (Q5S007 whole entry): as above
Assay: pS935 LRRK2 Cell Assay (HTRF, phospho-LRRK2 Ser935)
Details: LRRK2 Inhibition, Table 8, 2 hours compound incubation
pIC50: −log10 of the molar value.

- Molecule: "C[C@@H]1C[C@H](n2c(CC(=O)N[C@H](C)C3CC3)nc3cnc4ccc(C#N)cc4c32)CCO1"
  pIC50: 7.33
- Molecule: "C[C@@H]1C[C@H](n2c(CNS(C)(=O)=O)nc3cnc4ccc(C#N)cc4c32)CCO1"
  pIC50: 6.19
- Molecule: "CC(=O)NCc1nc2cnc3ccc(C#N)cc3c2n1[C@@H]1CCO[C@H](C)C1"
  pIC50: 6.18
- Molecule: "C[C@@H]1C[C@H](n2c(C3CCN(CC4CC4)C(=O)C3)nc3cnc4ccc(C#N)cc4c32)CCO1 (stereo partly shown)"
  pIC50: 6.06

----------
The following molecules have recorded IC50 on LRRK2 wild type enzyme (Homo sapiens).

- Molecule: "Cc1oncc1NC(=O)Cc1nc2cnc3ccc(C#N)cc3c2n1[C@@H]1CCO[C@H](C)C1"
  Unit Name: "nM"
  IC50: 0.427
- Molecule: "C[C@@H]1C[C@H](n2c(CC(=O)NCC(F)(F)CO)nc3cnc4ccc(C#N)cc4c32)CCO1"
  Unit Name: "nM"
  IC50: 0.837
- Molecule: "C[C@@H]1C[C@H](n2c(CC(=O)NC[C@@H]3CCOC3)nc3cnc4ccc(C#N)cc4c32)CCO1"
  Unit Name: "nM"
  IC50: 0.413
- Molecule: "C[C@@H]1C[C@H](n2c(CC(=O)Nc3cnc(C4CC4)nc3)nc3cnc4ccc(C#N)cc4c32)CCO1"
  Unit Name: "nM"
  IC50: 0.382
- Molecule: "C[C@@H]1C[C@H](n2c(CC(=O)NC3CC3(F)F)nc3cnc4ccc(C#N)cc4c32)CCO1 (some centres unmarked)"
  Unit Name: "nM"
  IC50: 0.642
- Molecule: "C[C@@H]1C[C@H](n2c(CN3CCCCC3=O)nc3cnc4ccc(C#N)cc4c32)CCO1"
  Unit Name: "nM"
  IC50: 10.8
- Molecule: "C[C@@H]1C[C@H](n2c(C3CCN(S(=O)(=O)C4CC4)CC3)nc3cnc4ccc(C#N)cc4c32)CCO1"
  Unit Name: "nM"
  IC50: 1.7
- Molecule: "C[C@@H]1C[C@H](n2c(CC(=O)NCCC(F)(F)F)nc3cnc4ccc(C#N)cc4c32)CCO1"
  Unit Name: "nM"
  IC50: 0.638
- Molecule: "C[C@@H]1C[C@H](n2c(CC(=O)Nc3cnn(C)c(=O)c3)nc3cnc4ccc(Cl)cc4c32)CCO1"
  Unit Name: "nM"
  IC50: 0.48
- Molecule: "C[C@@H]1C[C@H](n2c(CS(=O)(=O)C3CC3)nc3cnc4ccc(C#N)cc4c32)CCO1"
  Unit Name: "nM"
  IC50: 5.92
- Molecule: "C[C@@H]1C[C@H](n2c(CC(=O)Nc3cnn(C4CCC4)c3)nc3cnc4ccc(C#N)cc4c32)CCO1"
  Unit Name: "nM"
  IC50: 0.633
- Molecule: "C[C@@H]1C[C@H](n2c(CC(=O)Nc3cccnc3O)nc3cnc4ccc(C#N)cc4c32)CCO1"
  Unit Name: "nM"
  IC50: 0.45
- Molecule: "C[C@@H]1C[C@H](n2c(CC(=O)N[C@H]3C[C@H]3F)nc3cnc4ccc(C#N)cc4c32)CCO1"
  Unit Name: "nM"
  IC50: 0.692
- Molecule: "Cc1ncncc1NC(=O)Cc1nc2cnc3ccc(C#N)cc3c2n1[C@@H]1CCO[C@H](C)C1"
  Unit Name: "nM"
  IC50: 0.422
- Molecule: "COc1cc(C)ncc1NC(=O)Cc1nc2cnc3ccc(C#N)cc3c2n1[C@@H]1CCO[C@H](C)C1"
  Unit Name: "nM"
  IC50: 0.461
- Molecule: "C[C@@H]1C[C@H](n2c(CC(=O)Nc3cnn(C4COC4)c3)nc3cnc4ccc(C#N)cc4c32)CCO1"
  Unit Name: "nM"
  IC50: 0.733
- Molecule: "Cc1ccc(CN2CC(c3nc4cnc5ccc(C#N)cc5c4n3[C@@H]3CCO[C@H](C)C3)CC2=O)cn1 (some centres unmarked)"
  Unit Name: "nM"
  IC50: 1.19
- Molecule: "COc1ccc(NC(=O)Cc2nc3cnc4ccc(C#N)cc4c3n2[C@@H]2CCO[C@H](C)C2)cn1"
  Unit Name: "nM"
  IC50: 0.346
- Molecule: "C[C@@H]1C[C@H](n2c(CC(=O)Nc3cnn(C4CC4)c3)nc3cnc4ccc(C#N)cc4c32)CCO1"
  Unit Name: "nM"
  IC50: 0.683
- Molecule: "C[C@@H]1C[C@H](n2c(CC(=O)N[C@H](C)c3ccccn3)nc3cnc4ccc(C#N)cc4c32)CCO1"
  Unit Name: "nM"
  IC50: 0.696
- Molecule: "C[C@@H]1C[C@H](n2c(CC(=O)NC[C@H]3CCOC3)nc3cnc4ccc(C#N)cc4c32)CCO1"
  Unit Name: "nM"
  IC50: 0.567
- Molecule: "CCOc1ccc(NC(=O)Cc2nc3cnc4ccc(C#N)cc4c3n2[C@@H]2CCO[C@H](C)C2)cn1"
  Unit Name: "nM"
  IC50: 0.445
- Molecule: "C[C@@H]1C[C@H](n2c(CNc3ncco3)nc3cnc4ccc(C#N)cc4c32)CCO1"
  Unit Name: "nM"
  IC50: 4.23
- Molecule: "C[C@@H]1C[C@H](n2c(CC(=O)Nc3cnn(C)c3)nc3cnc4ccc(C#N)cc4c32)CCO1"
  Unit Name: "nM"
  IC50: 0.457
- Molecule: "C[C@@H]1C[C@H](n2c(CN3CCC(C(=O)O)CC3)nc3cnc4ccc(C#N)cc4c32)CCO1"
  Unit Name: "nM"
  IC50: 109
- Molecule: "COCC(C)(C)CNC(=O)Cc1nc2cnc3ccc(C#N)cc3c2n1[C@@H]1CCO[C@H](C)C1"
  Unit Name: "nM"
  IC50: 0.521
- Molecule: "C[C@@H]1C[C@H](n2c([C@@H]3CCN(S(C)(=O)=O)C3)nc3cnc4ccc(C#N)cc4c32)CCO1"
  Unit Name: "nM"
  IC50: 7.3
- Molecule: "C[C@@H]1C[C@H](n2c(CC(=O)NC3CCC3)nc3cnc4ccc(Cl)cc4c32)CCO1"
  Unit Name: "nM"
  IC50: 0.741
- Molecule: "Cc1cnc(NC(=O)Cc2nc3cnc4ccc(C#N)cc4c3n2[C@@H]2CCO[C@H](C)C2)cn1"
  Unit Name: "nM"
  IC50: 0.471
